# TARGET: T1, fluorescently quenched α-gliadin hexapeptide analogue QXL520-PQPQLP-K(5-FAM)-NH2
# T1 chain: PQPQLP
OBSERVATION_TYPE: Fold Change in Activity of PQ Hydrolysis Relative to Wild Type Kumamolysin-As (fold)
One number for each entry, in fold.

Working through the 2 proteins below one at a time, give Fold Change in Activity of PQ Hydrolysis Relative to Wild Type Kumamolysin-As for each.
1. Kumamolisin-As D293T, N291D, G319S, D358G, D368H (protein) AAPTAYTPLDVAQAYQFPEGLDGQGQCIAIIELGGGYDEASLAQYFASLGVPAPQVVSVSVDGASNQPTGDPSGPDGEVELDIEVAGALAPGAKFAVYFAPDTTAGFLDAITTAIHDPTLKPSVVSISWSGPEDSWTSAAIAAMNRAFLDAAALGVTVLAAAGDSGSTGGEQDGLYHVHFPAASPYVLACGGTRLVASGGRIAQETVWNDGPDGGATGGGVSRIFPLPAWQEHANVPPSANPGASSGRGVPDLAGNADPATGYEVVIDGEATVIGGTSAVAPLFAALVARINQKLGKAVGYLNPTLYQLPADVFHDITEGNNDIANRAQIYQAGPGWDPCTGLGSPIGVRLLQALLPSASQPQPGSTENLYFQSGALEHHHHHH
2. Kumamolisin-As T357A (protein) AAPTAYTPLDVAQAYQFPEGLDGQGQCIAIIELGGGYDEASLAQYFASLGVPAPQVVSVSVDGASNQPTGDPSGPDGEVELDIEVAGALAPGAKFAVYFAPNTDAGFLDAITTAIHDPTLKPSVVSISWGGPEDSWTSAAIAAMNRAFLDAAALGVTVLAAAGDSGSADGEQDGLYHVDFPAASPYVLACGGTRLVASGGRIAQETVWNDGPDGGATGGGVSRIFPLPAWQEHANVPPSANPGASSGRGVPDLAGNADPATGYEVVIDGEATVIGGTSAVAPLFAALVARINQKLGKAVGYLNPTLYQLPADVFHDITEGNNDIANRAQIYQAGPGWDPCTGLGSPIGVRLLQALLPSASQPQPGSTENLYFQSGALEHHHHHH

a:
1: 58; 2: 2
